Provenance of the data: ChEMBL document CHEMBL2417449

- Test method notes: Binding affinity to purified Enterococcus faecium D359 His-tagged Aslfm by kinetic study
- Conditions: in the assay text read “isothermal titration calorimetry” for “kinetic study”
Recorded Ki by entry
Field format: number, assumed µM, no unit text.

Smiles data	Unit abbreviation	Quantitative result
Nc1nc(SCc2c(Cl)cccc2Cl)c2nc[nH]c2n1	µM	5

Could you now look at the following molecule, please?
The reported Ki of the molecule Nc1ncc(C(=O)N(Cc2ccccc2)Cc2ccccc2)o1 was 5
